Test Target: T1, O8-bS
T1 chain: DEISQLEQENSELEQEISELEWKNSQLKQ
Assay Notes: two-hybrid library CCNG1;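 further: natural log of median RNA to DNA barcode read ratio; higher means stronger binding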
Field: interaction score. Provide a value for each of the binders that follow.

{"columns": ["Binder", "interaction score"],
 "data": [
  ["DKISQLKQEISELEQKNSELKWKNSQLKQ [O4-bS]", -2.55]
]}

Provide interaction score values for the following items, in order.
1. DKNSQLKQENSELEQKISELKWKISQLKQ [O10-bS]
2. DEISQLEQKISELKQKNSELKWKNSQLKQ [O12-bS]
3. DENSQLEQEISELEQKNSELKWEISQLEQ [O5-bS]

1: -1.24; 2: -0.862; 3: -1.34
